test: Leishmania major promastigote growth inhibition, primary screen (AID 1063); conditions: Leishmania major promastigotes, resazurin fluorescence viability; at 10 µM; active compounds read high;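 note: promastigotes grown with compound for 44 hours at 28 °C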
Screen size: about 200,000 compounds; about 18,000 (9%) were called active. The full list was thinned out, with actives kept by preference.
metric: inhibition (%)

• COC(=O)C(C)NC(=O)COc1ccc2ccccc2c1 (stereo not drawn) = 9.52
• CCSc1nc(C)c(CCOc2cccc(C)c2)c(=O)[nH]1 = -3.36
• O=C(NCC1CCCO1)c1ccc2ccccc2n1 (stereo not drawn) = -4.29
• COc1ccc(N2CCN(c3ccc([N+](=O)[O-])nc3)CC2)cc1 = -3.36
• Cc1cc(/C=N/NC(N)=O)c(C)n1C1CCCCC1 = 2.71
• Cc1cccc(CC(=O)N2CCN=C2SCc2ccc([N+](=O)[O-])cc2)c1 = 88.4
• COCCn1c(=O)[nH]c(=O)c2cc(C(=O)c3cc(OC)ccc3O)cnc21 = 0.78
• COc1ccc(CCn2ccc(O)c(Cc3ccc(Cl)cc3Cl)c2=O)cc1OC = 7.61

====

assay: Leishmania major promastigote growth inhibition, primary screen (AID 1063); settings: Leishmania major promastigotes, resazurin fluorescence viability; at 10 µM;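 note: promastigotes grown with compound for 44 hours at 28 °C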
The campaign covered roughly 200,000 compounds. About 18,000 (9%) were called active. Rule as the data show it: active = inhibition above about 50%; inactive = the rest. Shown is part of a subset that was picked to be rich in actives.
Labels: True (active), False (inactive)

• COc1ccc(OC)c(C(=O)c2coc3ccc(OC)cc23)c1 = False
• Cc1ccc2c(Cl)c(C(=O)NCCCn3ccnc3)sc2c1 = True
• O=C(O)c1cccc(S(=O)(=O)Nc2ccc(O)cc2Sc2nc3ccccc3s2)c1 = False
• Cc1cccc(/C(N)=N/OC(=O)c2ccccc2Cl)c1 = False
• O=C(N/N=C/C=C/c1ccco1)c1cccs1 = False
• N#CCC(=O)N/N=C/c1ccc(SCC(=O)Nc2ccccc2)o1 = False

====

assay: Leishmania major promastigote growth inhibition, primary screen (AID 1063); details: Leishmania major promastigotes, resazurin fluorescence viability; at 10 µM; active compounds read high;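 note: promastigotes grown with compound for 44 hours at 28 °C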
Out of some 200,000 compounds screened, about 18,000 (9%) were called active. The list comes from a sample in which actives are over-represented; it also holds close analogues and randomly drawn compounds.
inhibition reference
metric: inhibition (%)

- O=C(NCc1cccs1)C1CCN(S(=O)(=O)c2ccc(Cl)cc2)CC1: -6.16
- O=C(C(Cc1ccccc1)n1cccc1)N1CCN(C2CCCCC2)CC1 (stereo not drawn): 83
- COCCCNC(=O)/C=C/c1ccc(OCc2c(F)cccc2Cl)cc1: 16
- Cc1sc2ncnc(Sc3nc4ccccc4s3)c2c1C: 7.91
- CCCC(=O)C1CCN(Cc2ccccc2)CC1: 82.8
- Cc1ccc(-c2cn3cc([N+](=O)[O-])ccc3n2)cc1: 6.77
- COc1cc(CC(=O)N/N=C/c2ccccc2)c([N+](=O)[O-])cc1OC: -0.35
- OC(COc1ccccc1)Cn1cc(Br)cn1 (stereo not drawn): -7.06
- NS(=O)(=O)c1ccc(CCNC(=O)c2ccc([N+](=O)[O-])cc2[N+](=O)[O-])cc1: -7.26
- COc1cc(CN2CCN(Cc3ccc(C)cc3)CC2)c([N+](=O)[O-])cc1OC: 53.4
- Cc1cccc(N2C(=O)CC(SC(N)=Nc3ccccc3)C2=O)c1 (stereo not drawn): 45.7
- NC(=O)c1ccc(CN2CCC(Cc3ccccc3)CC2)cc1: 86.9
- Cc1noc(NS(=O)(=O)c2ccc(N/C=C/C(=O)c3ccccc3)cc2)c1C: -14.2
- Cc1noc(C)c1COc1cccc(C(=O)Nc2cccnc2)c1: 4.43
- COc1ccc(CCNC(=O)COC(=O)C2CCCCC2)cc1: -2.53
- O=C(Nn1c(-c2ccccc2)nc2ccccc2c1=O)c1ccc([N+](=O)[O-])cc1: -4.12
- CCCCn1c(=O)c(C(C)=O)c(O)c2ccccc21: -2.04
- O=C(NCCCN1CCN(Cc2ccccc2)CC1)C1CCN(S(=O)(=O)N2CCCC2)CC1: -6.76
- COc1ccc(NC(=O)/C(Cl)=C(/Cl)S(=O)Cc2ccc(C)cc2)cn1 (stereo not drawn): 101
- CCn1c(SCc2cc(=O)n3ccsc3n2)nc2ccccc21: -1.53
- Cn1cccc1-c1nc2ccccc2n1C: 6.87
- O=c1[nH]c(CCl)nc2cc(-c3ccc(Cl)cc3)sc12: 96.9
- O=C(Nc1ccccc1)N1CCN(Cc2ccccc2)CC1: -1.08

====

assay: Leishmania major promastigote growth inhibition, primary screen (AID 1063); details: Leishmania major promastigotes, resazurin fluorescence viability; at 10 µM; active compounds read high;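 note: promastigotes grown with compound for 44 hours at 28 °C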
The campaign covered roughly 200,000 compounds. About 18,000 (9%) were called active. The list comes from a sample in which actives are over-represented; it also holds close analogues and randomly drawn compounds.
// reported inhibition per item
metric: inhibition (%)

- COc1ccc(CC(=O)N/N=C(\C)c2ccccn2)cc1: 75.9
- CCOc1c(OC)cc(C2C(C#N)=C(N)Oc3n[nH]c(-c4ccncc4)c32)cc1OC (stereo not drawn): 6.78
- Cc1cc(C)c(C#N)c(SCC(=O)Nc2ccccc2)n1: -5.68
- O=C(NCCc1c[nH]c2ccccc12)c1cc2ccccc2oc1=O: 1.33
- Cc1ccc(-c2nnn(CC(=O)N(Cc3ccco3)C(C(=O)NC(C)(C)C)c3ccncc3)n2)o1 (stereo not drawn): 4.2
- C/C(=N\NC(=O)Cc1ccc(F)cc1)c1ccc(F)cc1: -7.37
- CCOc1cc(NC(=O)CCl)c(OCC)cc1NC(C)=O: 5.77
- O=C(COC(=O)c1n[nH]c2ccccc12)NCc1ccccc1: 3.11
- O=C(Cn1cc(-c2nnnn2-c2ccc(Cl)cc2)c(=O)c2ccccc21)c1ccccc1: -4.69
- CS(=O)(=O)N(Cc1ccc(Cl)cc1)c1ccc(C(=O)NCCSCc2ccco2)cc1: 53.3
- CC(C)n1c(-c2ccncc2)n[nH]c1=S: -1.76
- CN1CCNC(=O)C1CC(=O)NCCC1=CCCCC1 (stereo not drawn): 4.58
- c1ccc(-c2noc(-c3cccs3)n2)nc1: -1.93
- Cc1cccc(C)c1NC(=O)CSc1ccc([N+](=O)[O-])cn1: -1.31
- Cc1cccc(Nc2ccccc2C(=O)NCc2ccco2)c1C: 38.2
- Brc1ccc(C2CC(c3ccccc3)=Nc3ccccc3N2)cc1 (stereo not drawn): 27.2
- CN(c1ccccc1)S(=O)(=O)c1ccc(Cl)c(C(=O)NCCc2c[nH]c3ccccc23)c1: 95.2
- O=C(/C=C/c1ccc(N2CCOCC2)cc1)c1ccccc1: 13.2
- COCn1c(COc2ccccc2)nc2ccccc21: 1.65
- Cc1nc(C)c(C(=O)N(c2ccc(C)c(C)c2)C(C(=O)NCc2ccco2)c2ccccc2)s1 (stereo not drawn): -1.53
- C=C(C)CNC(=S)N/N=C/c1ccccc1OCC(=O)O: -1.38
- COc1ccc(C/C(C)=N/NC(=O)c2ccncc2)cc1: -6.69
- O=C(Cn1c(-c2cscn2)nc2ccccc21)Nc1ccc(Cl)cc1: 16.4

====

assay: Leishmania major promastigote growth inhibition, primary screen (AID 1063); conditions: Leishmania major promastigotes, resazurin fluorescence viability; at 10 µM; active compounds read high;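 note: promastigotes grown with compound for 44 hours at 28 °C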
In all, about 200,000 compounds went through this assay and about 18,000 (9%) were called active. Shown is part of a subset that was picked to be rich in actives.
metric: inhibition (%)

* CCOC(=O)N1CCN(C(c2cccnc2)c2ccc3cccnc3c2O)CC1 (stereo unspecified) | 100
* CSc1ccc(C(=O)C2CCCN(C(=O)c3ccc(C)nc3)C2)cc1 (stereo unspecified) | -4.42
* COc1cc(/C=N/Nc2ccc(C)cc2)cc(Br)c1O | -20.7
* Cc1ccc(S(=O)(=O)NCCSc2ccccc2)cc1[N+](=O)[O-] | -8.64
* O=C(c1ccc(C(F)(F)F)cc1)C1CCCN(C(=O)c2csnn2)C1 (stereo unspecified) | -5.59
* Cc1cccc(-n2c(C)cc(/C=N\NC(=O)c3cccs3)c2C)c1 | 17.2

====

assay: Leishmania major promastigote growth inhibition, primary screen (AID 1063); conditions: Leishmania major promastigotes, resazurin fluorescence viability; at 10 µM; active compounds read high;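 note: promastigotes grown with compound for 44 hours at 28 °C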
The whole screen tested about 200,000 compounds, of which about 18,000 (9%) were called active. This excerpt belongs to a sample that is enriched for actives.
metric: inhibition (%)

- O=C(Nc1ccccc1F)c1ccccc1-c1ccccc1: -3.5
- Cc1cc(OC(=O)c2ccccc2Cl)ccc1N1C(=O)CCC1=O: -6.74
- ClC1(Cl)CC1CSc1ncn[nH]1 (stereo not drawn): 3.37
- CN(C)c1ccc(C(CNC(=O)c2ccc(F)cc2)c2c[nH]c3ccccc23)cc1 (stereo not drawn): 96.3
- COc1ccc(Br)cc1/C=N/NC(=O)c1cccc(S(=O)(=O)N2CCOCC2)c1: 14.1
- c1ccc(CSCCc2ccncc2)cc1: 1.66
- O=C1Oc2ccccc2C(=O)/C1=C/c1ccccc1O: 7.18
- O=C(COC(=O)c1ccccc1C(=O)N1CCN(c2ccccc2)CC1)NCc1ccccc1: -2.49

Each recorded value in this set is attributed to PubChem BioAssay AID1063.
